Counter-ions that a name gives are not always drawn.
measuredProperty: melting point

N=c1n(Cc2ccc(Cl)cc2)c2ccccc2n1Cc1ccc(Cl)cc1 [Example 1]    185 to 187 °C
Fc1ccc(Cn2c(Nc3ccc(C(F)(F)F)cc3)nc3ccccc32)cc1F [Example 7]    167 to 170 °C
N=c1n(Cc2ccc(Cl)c(Cl)c2)c2ccccc2n1Cc1ccc(Cl)c(Cl)c1 [Example 2]    145 to 146 °C
Fc1ccc(Cn2c(Nc3ccc(F)c(F)c3)nc3ccccc32)cc1F (as salt: hydrochloride) [Example 5]    236 to 238 °C
Fc1ccc(CNc2nc3ccccc3n2-c2ccc(F)c(F)c2)cc1F [Example 19]    158.5 to 159.5 °C
N=c1n(Cc2cc(F)cc(F)c2)c2ccccc2n1Cc1cc(F)cc(F)c1 [Example 12]    144 to 145 °C
FC(F)(F)c1cc(Cn2c(Nc3ccc(Cl)c(C(F)(F)F)c3)nc3ccccc32)ccc1Cl [Example 8]    88 to 92 °C
Fc1ccc(CNc2nc3ccccc3n2Cc2ccc(Cl)c(C(F)(F)F)c2)cc1F [Example 9]    158 to 161 °C
N=c1n(Cc2ccc(F)c(F)c2)c2ccccc2n1Cc1ccc(F)c(F)c1 [Example 4]    114 to 117 °C
N=c1n(Cc2cccc(C(F)(F)F)c2)c2ccccc2n1Cc1cccc(C(F)(F)F)c1 [Example 16]    175 to 177 °C
N=c1n(Cc2ccc(F)c(F)c2)c2ccc(F)cc2n1Cc1ccc(F)c(F)c1 [Example 15]    > 166 °C (dec.)

----------
Structures can show the parent of a compound that is named as a salt.
measuredProperty: melting point

Fc1ccc(Nc2nc3ccccc3n2-c2ccc(F)c(F)c2)cc1F    115 to 117 °C
N=c1n(Cc2ccc(F)c(F)c2)c2ccc(Br)cc2n1Cc1ccc(F)c(F)c1    88 to 89.5 °C
N=c1n(Cc2ccc(F)cc2)c2ccccc2n1Cc1ccc(F)cc1    148 to 150 °C
N=c1n(Cc2ccc(F)c(F)c2)c2ccccc2n1-c1ccc(F)c(F)c1 (as salt: hydrobromid)    259 to 260 °C

Where these numbers come from: patent US7842817B2
